Values were extracted from PubChem BioAssay.

# experimental.details: viability loss in pontine glioma line – cell-based, SU-DIPG-XIII, MIPE4.0, CellTiter-Glo, qHTS, dose response (AID 1347061);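 also: cells exposed to compound for 48 hours before readout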
# setup.conditions: CellTiter-Glo ATP luminescence
Results filed as inconclusive are left out. Active and inactive are the calls of the source. The limit is not given here; nearly all actives have AC50 up to about 37 µM.
Valid outcomes are listed here; reply with one: active, inactive

Some solved entries appear below for comparison.
CC1(C)O[C@@H]2C[C@H]3[C@@H]4CCC5=CC(=O)C=C[C@]5(C)[C@H]4[C@@H](O)C[C@]3(C)[C@]2(C(=O)CO)O1	inactive
C[C@]12CC[C@@H]3c4ccc(O)cc4CC[C@H]3[C@@H]1[C@@H](O)[C@@H](O)[C@@H]2O	inactive
Cc1cnc(CNC(=O)c2c(=O)c3ccc(N4CCCN(C)CC4)nc3n3c2sc2ccccc23)cn1	inactive
C=Cc1c(C)c2cc3nc(cc4[nH]c(cc5nc(cc1[nH]2)C(C)=C5CCC(=O)O)c(CCC(=O)OC)c4C)[C@@]1(C)C3=CC=C(C(=O)OC)[C@H]1C(=O)OC	active
CC(O)C1C(=O)N2C(C(=O)O)=C(SC3CNC(C(=O)N(C)C)C3)C(C)C12 (centres undefined)	inactive
Cc1nc2cnc3ccc(C#Cc4cccnc4)cc3c2n1-c1ccc(C(C)(C)C#N)cc1	active
Nc1n[nH]c2nnc(-c3c(-c4ccccc4)nn4ccccc34)cc12	active
COCCNCCCn1c(C(=O)CF)c(-c2ccc(C)cc2)c2c(N)ncnc21	inactive

Consider the record given below.
Input line: Name the outcome recorded for "Cc1cn(-c2cc(NC(=O)c3ccc(C)c(Nc4nccc(-c5cccnc5)n4)c3)cc(C(F)(F)F)c2)cn1" in the assay.
Output line: inactive

----------
Answer each item with its documented inhibition.
# experimental.details: RCMB18 cell growth, single agent and combined, cisplatin and BGB IC40 combos (AID 1671462);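 also: cells exposed to compound for four days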
# setup.conditions: RCMB18 medulloblastoma cells, single agent, at 5 µM, stronger effect = higher value
Answers are plain numbers, in %.

O=C(O)[C@H](Cc1c[nH]c2ccccc12)N1C(=O)c2ccccc2C1=O	-14.1
N=C1CCCN1Cc1[nH]c(=O)[nH]c(=O)c1Cl	-5.54
Cc1ccc([N+](=O)[O-])cc1S(=O)(=O)N(C)/N=C/c1cnc2ccc(Br)cn12	76.8
Cc1cn([C@@H]2O[C@H](CO)[C@@H](O)[C@@H]2F)c(=O)[nH]c1=O	-12.7

Attention now turns to another entry.
# inhibition (compound: "Nc1ccc(-c2ccc3ncc4ccc(=O)n(-c5cccc(C(F)(F)F)c5)c4c3c2)cn1" ) is 62.1

----------
# experimental.details: viability loss in pontine glioma line – cell-based, SU-DIPG-XVII, MIPE5.0, CellTiter-Glo, qHTS, dose response (AID 1347060);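 as to AC50: cells exposed to compound for 48 hours before viability readout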
# setup.conditions: CellTiter-Glo ATP luminescence
Inconclusive results are not listed. Calls of active or inactive are those of the source. Cut-off not given; nearly all actives show AC50 up to about 26 µM.
Valid outcomes are listed here; reply with one: active, inactive

Some solved entries appear below for comparison.
CC(C)c1c2cc(-c3ccnc(NC4CCC(NC5CCOCC5)CC4)n3)ccc2nn1C (centres undefined)	active
O=c1c(-c2ccc(O)cc2)coc2cc(O[C@@H]3O[C@H](CO)[C@@H](O)[C@H](O)[C@H]3O)ccc12	inactive
CCc1c(O)cc(O)c(C(=O)c2ccc(OCCN3CCOCC3)c(OC)c2)c1CC(=O)N(CCOC)CCOC	active

Input line: Name the outcome recorded for C[C@@H]1C(=O)OC2[C@H](O)[C@]34[C@H]5C[C@@H](C(C)(C)C)[C@]36[C@@H](OC(=O)[C@@H]6O)O[C@@]4(C(=O)O5)[C@]21O (some centres undefined) in the assay.
Output line: inactive
